Biological target: rat squalene epoxidase (Rattus norvegicus, UniProt P52020)
Construct: Livers were extracted and homogenized; microsomes solubilized with 2 % Triton X-100, 105000 x g supernatant
Sequence (P52020 whole entry): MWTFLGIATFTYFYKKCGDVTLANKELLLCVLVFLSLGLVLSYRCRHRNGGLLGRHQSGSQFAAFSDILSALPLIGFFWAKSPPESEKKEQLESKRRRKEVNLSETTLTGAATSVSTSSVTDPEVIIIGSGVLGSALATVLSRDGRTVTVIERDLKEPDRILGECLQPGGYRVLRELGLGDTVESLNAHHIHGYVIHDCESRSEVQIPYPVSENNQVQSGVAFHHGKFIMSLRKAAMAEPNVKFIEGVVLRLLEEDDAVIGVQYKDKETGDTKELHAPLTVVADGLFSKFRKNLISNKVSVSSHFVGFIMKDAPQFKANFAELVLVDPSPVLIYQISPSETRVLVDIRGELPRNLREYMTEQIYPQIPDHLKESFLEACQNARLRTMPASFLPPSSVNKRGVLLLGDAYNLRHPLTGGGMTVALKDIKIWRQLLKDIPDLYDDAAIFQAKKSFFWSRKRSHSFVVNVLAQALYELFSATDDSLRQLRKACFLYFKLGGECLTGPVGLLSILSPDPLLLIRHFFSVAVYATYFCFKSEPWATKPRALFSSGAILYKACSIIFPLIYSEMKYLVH
Assay: Squalene epoxidase inhibiting activity (3H-squalene to squalene-2,3-epoxide, solubilized liver microsome fraction)
Settings: 8 µM 3H-squalene, 37 °C, 30 minutes, read-out: 50 % inhibitory concentration (IC50)
Structures can show the parent of a compound that is named as a salt.
MEASUREMENT_NAME: IC50 (µM)

> print(dat)
                                   compound  data.value
1  CN(C/C=C/C#CC(C)(C)C)Cc1cccc(CNc2ccccc2)c1 [Compound 104, hydrochloride]         7.7
2  COc1ccc(COc2cccc(CN(C)C/C=C/C#CC(C)(C)C)c2)cc1 [Compound 12]           6
3  CN(C/C=C/C#CC(C)(C)C)Cc1cccc(OCc2ccccc2C#N)c1 [Compound 67, hydrochloride]         2.4
4  CC(C)(C)C#C/C=C/CNCc1cccc(OCc2ccccc2)c1 [Compound 1]         6.8

###

Molecular target: rat squalene epoxidase (Rattus norvegicus)
Construct: Livers were extracted and homogenized; microsomes solubilized with 2 % Triton X-100, 105000 x g supernatant
Test: Squalene epoxidase inhibiting activity (3H-squalene to squalene-2,3-epoxide, solubilized liver microsome fraction)
Details: 8 µM 3H-squalene, 37 °C, 30 minutes, read-out: 50 % inhibitory concentration (IC50)
pIC50: −log10 of the molar value. Structures can show the parent of a compound that is named as a salt.
A collection of compounds and their measured pIC50
MEASUREMENT_NAME: pIC50

> print(dat)
                                   compound                              study.target  data.value
1  Cc1ccccc1CNc1cccc(CN(C)C/C=C/C#CC(C)(C)C)c1 [Compound 103, hydrochloride]  rat squalene epoxidase (Rattus norvegicus)        6.44
2  CCN(C/C=C/C#CC(C)(C)C)Cc1cccc(OCc2cccc(-c3cncs3)c2)c1  rat squalene epoxidase (Rattus norvegicus)        7.59
3  CCc1ccccc1COc1cccc(CN(C)C/C=C/C#CC(C)(C)C)c1 [Compound 62, hydrochloride]  rat squalene epoxidase (Rattus norvegicus)        6.44
4  CN(C/C=C/C#CC(C)(C)C)Cc1cccc(OCc2ccc(F)cc2)c1  rat squalene epoxidase (Rattus norvegicus)        5.33
5  CCN(C/C=C/C#CC(C)(C)C)Cc1cccc(OCc2cccc(-c3cnco3)c2)c1  rat squalene epoxidase (Rattus norvegicus)        8.57
6  CN(C/C=C/C#CC(C)(C)C)Cc1cccc(OCc2cccc(-c3ccco3)c2)c1 [Compound 75, hydrochloride]  rat squalene epoxidase (Rattus norvegicus)        6.85
7  C=C(C)Cc1cccc(COc2cccc(CN(C)C/C=C/C#CC(C)(C)C)c2)c1  rat squalene epoxidase (Rattus norvegicus)        6.27
8  Cc1ccccc1/C=C/c1cccc(CN(C)C/C=C/C#CC(C)(C)C)c1  rat squalene epoxidase (Rattus norvegicus)        5.70

###

Reported IC50 values follow for various molecules
Target: rat squalene epoxidase (Rattus norvegicus)
Construct: Livers were extracted and homogenized; from tissue; host or cells: liver of SD-strain female rats; microsomes solubilized with 2 % Triton X-100, 105000 x g supernatant
Assay: Squalene epoxidase inhibiting activity (3H-squalene to squalene-2,3-epoxide, solubilized liver microsome fraction)
Format: biochemical
Settings: 8 µM 3H-squalene, 37 °C, 30 minutes, read-out: 50 % inhibitory concentration (IC50)
Where a name gives a salt, the structure may show the parent alone.
MEASUREMENT_NAME: IC50

> print(dat)
                                   molecule  measurement.name  data.value
1  CN(C/C=C/C#CC(C)(C)C)Cc1cccc2ccccc12 [terbinafine, reference compound]              IC50    > 100 µM
2  Cc1ccc(CN(C)C/C=C/C#CC(C)(C)C)cc1OCc1ccccc1              IC50      5.6 µM
3  COc1cccc(COc2cccc(CN(C)C/C=C/C#CC(C)(C)C)c2)c1 [Compound 52, hydrochloride]              IC50      1.4 µM
4  CN(C/C=C/C#CC(C)(C)C)Cc1ccc(F)c(OCc2ccccc2)c1              IC50      4.9 µM

###

Target: rat squalene epoxidase (Rattus norvegicus, UniProt P52020)
Construct: Livers were extracted and homogenized; microsomes solubilized with 2 % Triton X-100, 105000 x g supernatant
Assay: Squalene epoxidase inhibiting activity (3H-squalene to squalene-2,3-epoxide, solubilized liver microsome fraction)
Details: 8 µM 3H-squalene, 37 °C, 30 minutes, read-out: 50 % inhibitory concentration (IC50)
Counter-ions that a name gives are not always drawn.
Threshold check on IC50: strictly below 1000 nM is MET; on or above 1000 nM is NOT MET.

> print(dat)
                                    compound  category
 1  CN(C/C=C/C#CC(C)(C)C)Cc1cccc(OCc2ccccc2)c1.Cl [Compound 2, hydrochloride]   NOT MET
 2  CN(C/C=C/C#CC(C)(C)C)Cc1cc(OCc2ccccc2)ccn1.Cl.Cl [Compound 110, dihydrochloride]   NOT MET
 3  Cc1ccccc1COc1ccnc(CN(C)C/C=C/C#CC(C)(C)C)c1       MET
 4  Cc1cccc(COc2cccc(CN(C)C/C=C/C#CC(C)(C)C)c2)c1C [Compound 55, hydrochloride]       MET
 5  CN(C/C=C/C#CC(C)(C)C)Cc1cccc(OCc2cccc(CO)c2)c1       MET
 6  CN(C/C=C/C#CC(C)(C)C)Cc1cccc(OCCCc2ccccc2)c1 [Compound 58, hydrochloride]   NOT MET
 7  CCCN(C/C=C/C#CC(C)(C)C)Cc1cccc(OCc2cccc(-n3cccc3)c2)c1       MET
 8  CCCN(C/C=C/C#CC(C)(C)C)Cc1cccc(OCc2ccccc2)c1       MET
 9  CC(C)=CCOc1cccc(CN(C)C/C=C/C#CC(C)(C)C)c1   NOT MET
10  CN(C/C=C/C#CC(C)(C)C)Cc1cccc(OCc2cccc(-n3cccc3)c2)c1       MET
11  C#CCN(C/C=C/C#CC(C)(C)C)Cc1cccc(OCc2ccccc2)c1   NOT MET
12  CN(C/C=C/C#CC(C)(C)C)Cc1cccc(OCc2cccc(-c3nccs3)c2)c1   NOT MET
13  CN(C/C=C/C#CC(C)(C)C)Cc1cccc(NCc2ccccc2)c1   NOT MET
14  Cc1ccc(COc2cccc(CN(C)C/C=C/C#CC(C)(C)C)c2)cc1   NOT MET
15  CCN(C/C=C/C#CC(C)(C)C)Cc1cccc(OCc2cccc(-n3cccc3)c2)c1       MET
16  CN(C/C=C/C#CC(C)(C)C)Cc1cccc(OC/C=C/c2ccccc2)c1 [Compound 63, hydrochloride]   NOT MET
17  CN(C/C=C\C#CC(C)(C)C)Cc1cccc(OCc2cccc3ccccc23)c1   NOT MET
18  CCN(C/C=C/C#CC(C)(C)C)Cc1cccc(OCc2ccccc2C)c1.Cl [Compound 44, hydrochloride]       MET
19  CN(C/C=C/C#CC(C)(C)C)Cc1cccc(OCc2cccc(-c3ccccc3)c2)c1 [Compound 74, hydrochloride]       MET
20  CN(C/C=C/C#CC(C)(C)C)Cc1cccc(OCc2cccc(-c3ncco3)c2)c1   NOT MET
21  Cc1cc(CN(C)C/C=C/C#CC(C)(C)C)cc(OCc2ccccc2)c1 [Compound 48, hydrochloride]   NOT MET
22  Cc1occc1COc1cccc(CN(C)C/C=C/C#CC(C)(C)C)c1   NOT MET
23  CCCN(C/C=C/C#CC(C)(C)C)Cc1cccc(OCc2ccccc2C)c1.Cl [Compound 45, hydrochloride]       MET
24  CN(C/C=C/C#CC(C)(C)C)Cc1cccc(OCc2cccc3cccnc23)c1 [Compound 87, hydrochloride]   NOT MET
25  CC(C)=CCOc1cccc(COc2cccc(CN(C)C/C=C/C#CC(C)(C)C)c2)c1   NOT MET
26  Cc1ccccc1COc1cccc(CN(C)C/C=C/C=C/C(C)(C)C)c1   NOT MET
27  C=CCN(C/C=C/C#CC(C)(C)C)Cc1cccc(OCc2ccccc2)c1   NOT MET
28  CN(C/C=C/C#CC(C)(C)C)Cc1cccc(OCc2cccc(Cl)c2)c1   NOT MET
